# Tested on: HS 578T breast
# ASSAY NAME: NCI tumour cell line growth inhibition, 48 h; in the data active = GI50 below about 0.43 µM; inactive = the rest
Respond with a class label; see active, inactive

COMPOUND	STUDY TARGET	ANSWER LABEL
O=C(OCc1ccc2c(Cl)cc(Cl)c(O)c2n1)N1CCN(C(=O)c2cc3cc(F)ccc3[nH]2)CC1	HS 578T breast	inactive
O=C1CSC(c2ccc(-c3nc4ccccc4s3)cc2)=N1	HS 578T breast	inactive
C=CCN1CC2CON(C(=O)C(OC)(c3ccccc3)C(F)(F)F)C2C1C(C)C (stereo unspecified)	HS 578T breast	inactive
C[C@H]1CCC/C=C/[C@@H]2C[C@H](O)C[C@H]2[C@H](O)[C@@H](SCC(O)CO)CC(=O)O1 (stereo partly specified)	HS 578T breast	inactive
C[C@]12CC[C@@H]3c4ccc(O)c([N+](=O)[O-])c4CC[C@H]3[C@@H]1CC[C@@H]2NS(=O)(=O)c1cccc(Br)c1	HS 578T breast	inactive

Call for entry `O=C(NCc1ccc(S(=O)(=O)c2cc(F)cc(F)c2)cc1)c1ccc2nccn2c1` : inactive

Recorded call for `COc1ccc(-c2csc(NC(=O)CSc3nc(C)c(-c4ccccc4)n3Nc3ccccc3)n2)cc1` ? inactive

Short answer needed: outcome of this test for COc1ccc2c(c1)C(C)Cc1c(ncnc1-n1cnc3cc(C)ccc31)N2C (stereo unspecified) ? active

Status in this test for `COc1ccc(/C=C(/c2ccccc2)[N+](=O)[O-])cc1` ? inactive

Which outcome did this test record for the compound `Clc1cc(Cl)cc(Nc2ccc3cc(OCCCN4CCOCC4)ccc3n2)c1` ? inactive

Answer briefly: the call reported for `Cn1c(=O)c2c(ncn2CC(=O)Nc2ccc(-c3ccccc3)nn2)n(C)c1=O` in this assay. inactive
